# System: Saccharomyces cerevisiae
# protocol notes: protein stability index of tFT-peptide fusion in wild type (PSI (0-1 scale)); higher = more stable (slower turnover)
# measurement context: genetic background: wild type
Reported values of protein stability index for individual entries
measure: protein stability index

{"columns": ["residue codes", "result value"],
 "data": [
  ["KKHKKGQKQKINV", 0.647],
  ["GLYMCSVGCWFRG", 0.334],
  ["ARWRVGLWLGAS", 0.467],
  ["RLIQPLPVFFLN", 0.0542],
  ["PDKRNHLIKLLW", 0.578],
  ["CLVSLPPLLFFR", 0.0903],
  ["AITLPMCPMLLR", 0.392],
  ["CTSCGYKFRTNNL", 0.723],
  ["PSLAASKWRVVG", 0.138],
  ["KKHKQGQKQKIN", 0.0536],
  ["LKILRQKMNQQN", 0.218],
  ["AITLPMCPLQLR", 0.608],
  ["VRGAVGGTRLVG", 0.63],
  ["PDKNNHLIKLLN", 0.242],
  ["LVVYLSCVRCIN", 0.109],
  ["CLVSLPILLFIR", 0.0496],
  ["LVHYLSCVACIN", 0.0263],
  ["AITLPMCPLLLD", 0.608],
  ["LVVYLSCVACINW", 0.0246],
  ["AITLPMCELLLR", 0.511],
  ["CLVSLPILLFFRQ", 0.0783]
]}

----------
# Test system: Saccharomyces cerevisiae
# protocol notes: protein stability index of tFT-peptide fusion (C-terminal peptide) (PSI (0-1 scale)); higher = more stable (slower turnover)
# measurement context: genetic background: wild type; temperature: 37 C
Reported protein stability index values are given for each entry in this list.

{"columns": ["residue codes", "target of assay", "protein stability index"],
 "data": [
  ["VLLMFFFRFSAL", "Saccharomyces cerevisiae", 0.624],
  ["FWGRAGVWRLKG", "Saccharomyces cerevisiae", 0.595],
  ["PGWALLQLVFLK", "Saccharomyces cerevisiae", 0.464]
]}

----------
# Tested on: Saccharomyces cerevisiae
# protocol notes: protein stability index of tFT-peptide fusion (C-terminal peptide) (PSI (0-1 scale)); higher = more stable (slower turnover)
# measurement context: genetic background: wild type; temperature: 30 C

{"columns": ["residue codes", "target of assay", "protein stability index"],
 "data": [
  ["LPAPPPPPPSPL", "Saccharomyces cerevisiae", 0.71],
  ["PLSLLVHPLPPS", "Saccharomyces cerevisiae", 0.679],
  ["VEAIKTSMFFLW", "Saccharomyces cerevisiae", 0.711],
  ["GGGSHASERAAR", "Saccharomyces cerevisiae", 0.723],
  ["WFDGGGWLLFVV", "Saccharomyces cerevisiae", 0.557],
  ["STASSFFFFCCF", "Saccharomyces cerevisiae", 0.664],
  ["ISRFSLTFPFHR", "Saccharomyces cerevisiae", 0.695],
  ["PVGWRGGYVGGR", "Saccharomyces cerevisiae", 0.666],
  ["YLGTETSLTSLK", "Saccharomyces cerevisiae", 0.786],
  ["HLFSLGSCLSDP", "Saccharomyces cerevisiae", 0.731],
  ["RLAVQCVCQIGI", "Saccharomyces cerevisiae", 0.621],
  ["PVSLPPSLRRPS", "Saccharomyces cerevisiae", 0.736],
  ["GVQDEERYSRSE", "Saccharomyces cerevisiae", 0.656],
  ["SYRLILGSSPHP", "Saccharomyces cerevisiae", 0.619],
  ["LEYCLATYLSAC", "Saccharomyces cerevisiae", 0.378],
  ["SWQSRISLRIST", "Saccharomyces cerevisiae", 0.648],
  ["EKLADTTKRRRV", "Saccharomyces cerevisiae", 0.724],
  ["KHKKKKKEYKKK", "Saccharomyces cerevisiae", 0.729],
  ["LPLIRQLPNPPP", "Saccharomyces cerevisiae", 0.648],
  ["YRLAPVSLTMSS", "Saccharomyces cerevisiae", 0.706],
  ["YQHSRSGRNKII", "Saccharomyces cerevisiae", 0.235],
  ["PVEAPVGLVCAK", "Saccharomyces cerevisiae", 0.568],
  ["RQSITIAQPGRP", "Saccharomyces cerevisiae", 0.643],
  ["RFMAFGDKEILR", "Saccharomyces cerevisiae", 0.662],
  ["SVFVFFGFIDFL", "Saccharomyces cerevisiae", 0.469],
  ["PPSPRPPPSPPP", "Saccharomyces cerevisiae", 0.7],
  ["SPGLLPLALFSL", "Saccharomyces cerevisiae", 0.678],
  ["FGVGWGDGFFGV", "Saccharomyces cerevisiae", 0.716],
  ["TSKRRRWGTTRK", "Saccharomyces cerevisiae", 0.672],
  ["GGWGGGCGACVV", "Saccharomyces cerevisiae", 0.72]
]}

----------
# System: Saccharomyces cerevisiae
# protocol notes: protein stability index of tFT-peptide fusion (C-terminal peptide) (PSI (0-1 scale)); higher = more stable (slower turnover)
# measurement context: genetic background: wild type; temperature: 30 C
Listed sequences paired with reported protein stability index

{"columns": ["residue codes", "protein stability index"],
 "data": [
  ["GGRGWWRGTGSG", 0.719],
  ["SPHPPPSSPPPP", 0.674],
  ["LIRDLLYMAVLV", 0.38],
  ["SVRSYYVRSMLE", 0.692],
  ["PPPPASARPSLP", 0.477],
  ["ASRADSALGITV", 0.727],
  ["VFVGGGCRGFCL", 0.624],
  ["RAHSGSTCCGAQ", 0.698],
  ["AWLCSVFLLSLS", 0.533],
  ["SPGSSPPLLSPH", 0.761],
  ["WSVVGVGGCGAR", 0.712],
  ["APPPPPFPPPCA", 0.694],
  ["RSSPVPLSCRKG", 0.66],
  ["AGRGGTGIGERV", 0.63],
  ["SCRVVSGLAIWW", 0.734],
  ["KWNITKEQENSR", 0.681],
  ["PACSPLPPLPLS", 0.7],
  ["GVRRRQLIWSVC", 0.241],
  ["ESRPRVGLERER", 0.676],
  ["KKKNNEKLEEKK", 0.687],
  ["EVTEVCTIKVHV", 0.577],
  ["SPAPPPPVTPPL", 0.662],
  ["GLPSHPAPPSTN", 0.657],
  ["SAYASCFGSESL", 0.675],
  ["GWGCCWSVAWTF", 0.614],
  ["PSPSLPSACARP", 0.701],
  ["KVFTQGPGRMLE", 0.758],
  ["GVFCHILAFLWC", 0.512],
  ["ALLGGQLVWNSK", 0.667],
  ["GSLPERPLRYVC", 0.162],
  ["PCTGSKRRSLKS", 0.717],
  ["AQRRHGRSIRRD", 0.787],
  ["VAWCVWCWWWAV", 0.131],
  ["TFPSADLYYSLL", 0.74],
  ["ASICAFFCWFLV", 0.419],
  ["FLSLSFLLLHFP", 0.471],
  ["RSRRPALVLSGN", 0.729],
  ["ITLLYFAGVSVL", 0.513],
  ["PPLPPPPPHPPP", 0.488],
  ["GVGGGISGGRWG", 0.666],
  ["LPPFGLFLFVFI", 0.366],
  ["THTDQKTNHRRQ", 0.69],
  ["LYRRGTYFEGLI", 0.704],
  ["CPVSFSFCLKVL", 0.045],
  ["CDDGLIVNKVDS", 0.665],
  ["RCRGTEGWLDSG", 0.63],
  ["PLLPRSILSATG", 0.641],
  ["RQLSSFSDRSGS", 0.715],
  ["SFYFAPLLSPFA", 0.597],
  ["FLIYMFRHCFFH", 0.345],
  ["RWPPPPPELPPP", 0.655],
  ["LQRAPKLLPSSS", 0.683],
  ["DPCWLEFRESGG", 0.704],
  ["GGENGLGGLGVG", 0.626],
  ["FLMCVFFLCFSN", 0.34],
  ["YHGVYLARVLQA", 0.45],
  ["RLLPAPPPPTRP", 0.693],
  ["PPSPLAPPCSPR", 0.672],
  ["TPEQMKIKRNVE", 0.69],
  ["PLFLYCRSAPRL", 0.817],
  ["SKLAVWVGERGF", 0.759],
  ["GGCPPFGVSSVG", 0.708],
  ["SPPGPLPPRRPF", 0.725],
  ["PPAPLPLAPSSL", 0.722],
  ["RHVCPLLYPCSS", 0.635],
  ["SGNSPTRDRLRE", 0.684],
  ["PLTRSRFLLSPL", 0.653],
  ["EQRSKSHVLPPR", 0.737],
  ["GNGENKVIVRKS", 0.696],
  ["WGWGGHGIVRRE", 0.812],
  ["TACIVGLRLMRL", 0.787],
  ["REGKIVNNKNEN", 0.687],
  ["IFFYPFLIFCFV", 0.325],
  ["SFFSSSRVCLGF", 0.685],
  ["TPKWRRRLNQGL", 0.719],
  ["VGGCVVSFSANR", 0.657],
  ["PRRQCIRAPCAR", 0.641],
  ["GSPRFSNGCEYF", 0.59]
]}
